molecular target: ROCK I (AA 6-553) (Homo sapiens, UniProt Q13464)
Sequence (Q13464 6-553, species assumed): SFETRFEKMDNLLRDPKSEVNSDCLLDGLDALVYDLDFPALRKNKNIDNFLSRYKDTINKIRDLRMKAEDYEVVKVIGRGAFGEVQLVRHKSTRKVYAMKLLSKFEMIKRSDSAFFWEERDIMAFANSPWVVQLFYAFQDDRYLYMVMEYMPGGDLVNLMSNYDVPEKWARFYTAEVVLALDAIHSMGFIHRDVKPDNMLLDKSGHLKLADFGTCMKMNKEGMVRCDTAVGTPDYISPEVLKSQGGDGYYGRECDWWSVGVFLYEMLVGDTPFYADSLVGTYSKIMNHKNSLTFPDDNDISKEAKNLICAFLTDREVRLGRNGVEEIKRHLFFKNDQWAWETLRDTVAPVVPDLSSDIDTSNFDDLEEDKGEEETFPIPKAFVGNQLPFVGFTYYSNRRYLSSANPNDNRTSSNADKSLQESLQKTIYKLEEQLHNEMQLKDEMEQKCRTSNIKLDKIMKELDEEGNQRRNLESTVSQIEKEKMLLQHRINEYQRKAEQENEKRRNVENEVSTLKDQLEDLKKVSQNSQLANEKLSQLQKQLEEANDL
MEASURE: Ki

Example entries begin here.
# COMPOUND, MEASURE, RESULT VALUE
rows = [
    ("O=C(Cc1cc2c(cc1Cl)OCO2)Nc1nc(-c2ccnc(Cl)c2)cs1", "Ki", "< 100 nM"),
    ("O=C(Cc1cccc(OCCCN2CCNCC2)c1)Nc1nc(-c2ccnc(Cl)c2)cs1", "Ki", "< 100 nM"),
    ("O=C(Cc1cccc(OCCCC2CCNCC2)c1)Nc1cc(-c2ccnc(F)c2)cs1", "Ki", "< 100 nM"),
    ("CCOc1cc(-c2csc(NC(=O)Cc3ccc(F)cc3)n2)ccn1", "Ki", "> 1000 nM"),
    ("CS(=O)(=O)Nc1ccc(F)c(CC(=O)Nc2cc(-c3ccnc(Cl)c3)cs2)c1", "Ki", "< 100 nM"),
    ("O=C(Cc1cc2c(cc1Cl)OCO2)Nc1cc(-c2ccnc(Cl)c2)cs1", "Ki", "< 100 nM"),
    ("CS(=O)(=O)Nc1ccc(CC(=O)Nc2nc(-c3ccnc(N)c3)cs2)cc1", "Ki", "100 to 1000 nM"),
    ("Cc1cc(-c2csc(NC(=O)Cc3ccccc3F)c2)ccn1", "Ki", "100 to 1000 nM"),
    ("O=C(Cc1ccc(F)cc1F)Nc1nc(-c2ccnc(F)c2)cs1", "Ki", "< 100 nM"),
    ("NCCC(C(=O)Nc1cc(-c2ccnc(Cl)c2)cs1)c1ccc(F)cc1F (stereo not shown)", "Ki", "100 to 1000 nM"),
]

Return reported Ki values for all items listed beneath this line.
1. Cc1cc(-c2csc(NC(=O)Cc3ccccc3F)n2)ccn1
2. Nc1cc(-c2csc(NC(=O)Cc3ccccc3Cl)n2)ccn1
3. Cc1cc(-c2csc(NC(=O)Cc3cccc(OCCCN4CCNCC4)c3)c2)ccn1

Response:
["100 to 1000 nM", "< 100 nM", "< 100 nM"]
